Each recorded value in this set is attributed to the supplement of paper PMC7411054.

Test system: HepG2-CANX-COX4
Assay: phenotypically active (imaging signature differs from DMSO and reproducible) at any of 0.3-9 uM (binary (1 = active, 0 = inactive)); higher = active
Conditions: treatment time: 24 h
Counter-ions that a name gives are not always drawn.
Measurement name: phenotypically active

{"columns": ["Compound", "Experimental system", "Measurement name", "Reported value"],
 "data": [
  ["C[C@H](NCCc1ccc(O)cc1)[C@H](O)c1ccc(O)cc1", "HepG2-CANX-COX4", "phenotypically active", 0],
  ["O=C(Nc1cccc(Cl)c1)Nc1ncc(CCNc2ncnc3ccsc23)s1 [SNS 314 mesylate]", "HepG2-CANX-COX4", "phenotypically active", 1],
  ["CNC[C@H](O)c1ccc(O)c(O)c1 [epinephrine]", "HepG2-CANX-COX4", "phenotypically active", 0],
  ["C/C=C(/C(=C/C)c1ccc(O)cc1)c1ccc(O)cc1", "HepG2-CANX-COX4", "phenotypically active", 0],
  ["C#C[C@]1(O)CC[C@H]2[C@@H]3CCC4=CC(=NO)CC[C@@H]4[C@H]3CC[C@@]21CC", "HepG2-CANX-COX4", "phenotypically active", 0]
]}

----------
// reported phenotypically active per item
Tested on: HepG2-TUBA1B-RELA
Assay: phenotypically active (imaging signature differs from DMSO and reproducible) at any of 0.3-9 uM (binary (1 = active, 0 = inactive)); higher = active
Details: treatment time: 24 h
Measurement name: phenotypically active

{"columns": ["Molecule", "Reported value"],
 "data": [
  ["Cc1cccc(CCN2CCC(C(=O)c3ccc(NS(C)(=O)=O)cc3)CC2)n1", "0 (inactive)"],
  ["CC(C)[C@H](N)C(=O)OCC(CO)OCn1cnc2c(=O)[nH]c(N)nc21 (stereo not given in full)", "0 (inactive)"],
  ["Nc1nc2ccc(OC(F)(F)F)cc2s1", "0 (inactive)"],
  ["Cc1cc2c(s1)Nc1ccccc1N=C2N1CCN(C)CC1", "1 (active)"],
  ["Nc1nnc2[nH]c3ccccc3nc1-2", "0 (inactive)"],
  ["COc1ccc(-c2cc3c(C)nc(N)nc3n([C@H]3CC[C@H](OCCO)CC3)c2=O)cn1", "1 (active)"],
  ["Nc1cc(C(F)(F)F)c(-c2cc(N3CCOCC3)nc(N3CCOCC3)n2)cn1", "1 (active)"],
  ["COc1cc2ncnc(Nc3ccc(O)c(Br)c3)c2cc1OC", "1 (active)"],
  ["O=C(CCCCCCC(=O)NO)NO", "0 (inactive)"],
  ["C[C@H](NC(=O)c1sccc1OCc1ccc(Cl)cc1)c1ccccc1", "0 (inactive)"]
]}

----------
// reported lowest phenotypically active concentration per item
Tested on: A549-GM130-SQSTM1
Test: lowest phenotypically active concentration; higher = less potent
Conditions: treatment time: 24 h
Measurement name: lowest phenotypically active concentration (µM)

{"columns": ["Compound", "Comparative sign", "Reported value"],
 "data": [
  ["Cc1c[nH]c2nccc(Oc3c(F)cc(Nc4cc(Cl)nc(N)n4)cc3F)c12", "≤", 0.3],
  ["CO[C@@H]1[C@H](N(C)C(=O)c2ccccc2)C[C@H]2O[C@]1(C)n1c3ccccc3c3c4c(c5c6ccccc6n2c5c31)C(=O)NC4", "≤", 0.3],
  ["O=C1/C(=C\\c2ccncc2)CCC/C1=C\\c1ccncc1", "=", 3],
  ["Cc1ccc(NC(=O)c2cccc(N(C)C)c2)cc1NC(=O)c1ccc(O)cc1", "=", 3],
  ["Nc1cc(N)c(N)cc1N [FAK Inhibitor 14]", "=", 9],
  ["CCCCCCCCCCNCCSSCc1ccc(Cl)cc1", "=", 3],
  ["N=C(N)NC(=N)NCCc1ccccc1 [phenformin]", "=", 9]
]}

----------
Tested on: A549-GM130-SQSTM1
Assay: phenotypically active (imaging signature differs from DMSO and reproducible) at any of 0.3-9 uM (binary (1 = active, 0 = inactive)); higher = active
Conditions: treatment time: 24 h
Outcomes: active, inactive

{"columns": ["Compound", "Experimental system", "Classification"],
 "data": [
  ["CN(C)CCCNc1c2c(=O)n(C)c(=O)nc-2n(C)c2ccccc12", "A549-GM130-SQSTM1", "active"],
  ["Nc1nc(OCC2CCCCC2)c2nc[nH]c2n1", "A549-GM130-SQSTM1", "inactive"],
  ["CNC(=O)COC(=O)NCCC1CCN(c2cccc(C)n2)CC1", "A549-GM130-SQSTM1", "inactive"],
  ["NC(=O)c1cn(Cc2c(F)cccc2F)nn1 [rufinamide]", "A549-GM130-SQSTM1", "inactive"],
  ["CC(C)n1nc(-c2cc3cc(O)ccc3[nH]2)c2c(N)ncnc21", "A549-GM130-SQSTM1", "active"],
  ["O=C1CCc2cc(OCCCCc3nnnn3C3CCCCC3)ccc2N1 [Cilostazol]", "A549-GM130-SQSTM1", "inactive"]
]}

----------
Tested on: A549-TP53BP1-CLTA
Experiment: lowest phenotypically active concentration; higher = less potent
Details: treatment time: 24 h
// reported lowest phenotypically active concentration per item
Measurement name: lowest phenotypically active concentration (µM)

{"columns": ["Molecule", "Quantity unit", "Comparative sign", "Reported value"],
 "data": [
  ["CC(=O)[C@@]1(O)CC[C@H]2[C@@H]3C[C@H](C)C4=CC(=O)C=C[C@]4(C)[C@@]3(F)[C@@H](O)C[C@@]21C [fluorometholone]", "µM", "≤", 0.3],
  ["COc1cc(C)c(Sc2cnc(NC(=O)c3ccc(CNC(C)C(C)(C)C)cc3)s2)cc1C(=O)N1CCN(C(C)=O)CC1 (centres undefined)", "µM", "=", 9],
  ["Clc1ccccc1C(c1ccccc1)(c1ccccc1)n1ccnc1 [Clotrimazole]", "µM", "=", 9],
  ["CCCNCC(O)COc1ccccc1C(=O)CCc1ccccc1 (centres undefined) [propafenone]", "µM", "=", 9]
]}

----------
System: WPMY1-TP53BP1-CLTA
Assay: phenotypically active (imaging signature differs from DMSO and reproducible) at any of 0.3-9 uM (binary (1 = active, 0 = inactive)); higher = active
Details: treatment time: 24 h
Counter-ions that a name gives are not always drawn.
Outcomes: active, inactive

{"columns": ["Compound", "Classification"],
 "data": [
  ["Cc1c[nH]c2nccc(Oc3c(F)cc(Nc4cc(Cl)nc(N)n4)cc3F)c12", "active"],
  ["O=C1N=C(NCc2cccs2)S/C1=C\\c1ccc2ncccc2c1", "active"],
  ["COC(=O)c1c(C)cc(OC(=O)c2c(C)cc(O)c(C=O)c2O)c(C)c1O", "inactive"],
  ["CN(CCOc1ccc(C[C@H](Nc2ccccc2C(=O)c2ccccc2)C(=O)O)cc1)c1ccccn1 [GW 1929 hydrochloride]", "inactive"],
  ["COc1ccc(CCc2nc3cc(-c4c(C)noc4C)ccc3n2C[C@H](C)N2CCOCC2)cc1Cl", "inactive"],
  ["O=S(=O)(c1ccccc1)N(CC(F)(F)F)c1ccc(C(O)(C(F)(F)F)C(F)(F)F)cc1", "inactive"],
  ["Cc1cc(C)c(C)c(S(=O)(=O)Nc2ccc(N3CC[C@H](C(=O)O)C3)c3ccccc23)c1C", "inactive"],
  ["C[C@@H](Nc1ncnc2[nH]c(-c3ccc(O)cc3)cc12)c1ccccc1 [PKI 166 hydrochloride]", "active"],
  ["CCCN(CCC)CCc1cccc2c1CC(=O)N2", "inactive"],
  ["CC[C@H](CO)Nc1nc(Nc2cccc(-c3ccccn3)c2)c2ncn(C(C)C)c2n1 [(R)-DRF053 dihydrochloride]", "inactive"],
  ["C[C@@H]1O[C@@H](OC[C@H]2O[C@@H](Oc3c(-c4ccc(O)c(O)c4)oc4cc(O)cc(O)c4c3=O)[C@H](O)[C@@H](O)[C@@H]2O)[C@H](O)[C@H](O)[C@H]1O [Quercétine-3-rutinoside]", "inactive"],
  ["CC(=O)O[C@@H]1C[C@H]2C(C)(C)C(=O)C=C[C@]2(C)[C@H]2CC[C@@]3(C)[C@H](c4ccoc4)OC(=O)[C@H]4O[C@]43[C@@]21C", "inactive"],
  ["Nc1nc(Cl)nc2c1ncn2[C@H]1C[C@H](O)[C@@H](CO)O1", "active"],
  ["C[C@]12CCC(=O)C=C1CC[C@@H]1[C@@H]2[C@@H](O)C[C@@]2(C)[C@H]1CC[C@]2(O)C(=O)CO [hydrocortisone]", "inactive"],
  ["c1ccc(-c2cnn3cc(-c4ccc(OCCN5CCOCC5)cc4)cnc23)cc1", "inactive"],
  ["CCN(CCO)CCCOc1ccc2c(Nc3cc(CC(=O)Nc4cccc(F)c4)n[nH]3)ncnc2c1", "active"],
  ["CCCCN1CCCCC1C(=O)Nc1c(C)cccc1C (stereo not drawn)", "inactive"],
  ["C[C@]1(O)C[C@@H](c2nc(-c3ccc4ccc(-c5ccccc5)nc4c3)c3c(N)nccn32)C1", "active"],
  ["CCC(CC)(NC(=O)C(C)C)C(=O)N[C@@H](CCCNC(=N)N)C(=O)NC1(C(=O)NC(c2ccc(F)cc2)c2ccc(F)cc2)CCCC1", "inactive"],
  ["C=CCc1ccccc1OC[C@@H](O)CNC(C)C [Alprenolol hydrochloride]", "inactive"],
  ["Cc1ncc([N+](=O)[O-])n1CCOC(=O)NC(Nc1ncccn1)C(Cl)(Cl)Cl (stereo not drawn)", "inactive"],
  ["COc1ccc([C@@H]2CC(=O)c3c(O)cc(O[C@@H]4O[C@H](CO[C@@H]5O[C@@H](C)[C@H](O)[C@@H](O)[C@H]5O)[C@@H](O)[C@H](O)[C@H]4O)cc3O2)cc1O", "inactive"],
  ["O=C(Nc1nc2cc(C(F)(F)F)cc(NC3CC3)n2n1)c1cccnc1", "active"],
  ["Cn1cnc2c(F)c(Nc3ccc(Br)cc3Cl)c(C(=O)NOCCO)cc21", "active"],
  ["CNC1CCC2(C)C(=CCC3C2CCC24CN(C)C(C)C2CCC34)C1 (stereo not drawn)", "active"],
  ["CCOc1cc([C@@H](CS(C)(=O)=O)N2C(=O)c3cccc(NC(C)=O)c3C2=O)ccc1OC", "inactive"],
  ["C#CCN(C)Cc1ccccc1", "inactive"],
  ["CCCSc1nc2c(c(=O)n1-c1ccccc1)SCC2", "inactive"],
  ["CN1CCCC(n2nc(Cc3ccc(Cl)cc3)c3ccccc3c2=O)CC1 (stereo not drawn)", "active"],
  ["Nc1ncn([C@@H]2O[C@H](CO)[C@@H](O)[C@H]2O)c(=O)n1", "active"],
  ["CNC(=O)COC(=O)N1CCC(CCc2ccc(Cl)cc2)CC1", "inactive"],
  ["Cc1cc(Nc2cc(C)c(C#N)c(NC(C)CCCC(C)(C)O)n2)n[nH]1 (stereo not drawn) [TC-A 2317 hydrochloride]", "active"],
  ["COC(=O)C1=CO[C@@H](O[C@@H]2O[C@H](CO)[C@@H](O)[C@H](O)[C@H]2O)[C@H]2[C@@H]1C(=O)C[C@@H]2C", "inactive"]
]}
